What follows is a collection of AC50 values obtained with Gamma-aminobutyric acid receptor subunit alpha-1 (Rattus norvegicus).
Sequence (P62813 whole entry): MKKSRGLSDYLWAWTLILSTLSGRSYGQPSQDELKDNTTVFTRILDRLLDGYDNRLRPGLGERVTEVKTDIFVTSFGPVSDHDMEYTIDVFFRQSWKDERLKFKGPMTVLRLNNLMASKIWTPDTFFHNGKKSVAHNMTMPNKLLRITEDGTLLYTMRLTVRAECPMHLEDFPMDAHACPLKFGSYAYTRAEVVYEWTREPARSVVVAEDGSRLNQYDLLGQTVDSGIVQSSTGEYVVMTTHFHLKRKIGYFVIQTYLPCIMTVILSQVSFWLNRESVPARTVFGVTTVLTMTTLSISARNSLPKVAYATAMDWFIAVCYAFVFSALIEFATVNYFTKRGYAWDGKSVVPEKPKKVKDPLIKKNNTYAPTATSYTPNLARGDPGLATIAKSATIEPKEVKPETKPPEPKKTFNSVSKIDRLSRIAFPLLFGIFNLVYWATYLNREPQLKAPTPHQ

Example molecules with recorded AC50:
Molecule | AC50
Cc1onc(-c2ccccc2)c1-c1ccc(S(N)(=O)=O)cc1 | > 10 µM
CCCC(CCC)C(N)=O [VALPROMIDE] | > 10 µM
COc1cc(N)c(Cl)cc1C(=O)NC1CCN(Cc2ccccc2)CC1 [CLEBOPRIDE] | > 30 µM
CSCC[C@H](NC(=O)[C@H](Cc1c[nH]c2ccccc12)NC(=O)CCNC(=O)OC(C)(C)C)C(=O)N[C@@H](CC(=O)O)C(=O)N[C@@H](Cc1ccccc1)C(N)=O | > 10 µM
C=CC[C@@H]1/C=C(\C)C[C@H](C)C[C@H](OC)[C@H]2O[C@@](O)(C(=O)C(=O)N3CCCC[C@H]3C(=O)O[C@H](/C(C)=C/[C@@H]3CC[C@@H](O)[C@H](OC)C3)[C@H](C)[C@@H](O)CC1=O)[C@H](C)C[C@@H]2OC [TACROLIMUS ANHYDROUS] | > 30 µM
Nc1ccc(S(=O)(=O)Nc2nccs2)cc1 | > 10 µM
CN(CC1(C)CCCO1)S(=O)(=O)c1ccc(Cl)c(S(N)(=O)=O)c1 (stereo not drawn) [MEFRUSIDE] | > 30 µM
CCN1CCCC1CNC(=O)c1cc(S(=O)(=O)CC)c(N)cc1OC (stereo not drawn) [AMISULPRIDE] | > 30 µM

Query string: Record request: AC50 value, item CCC(C)C(CC)C(N)=O (stereo not drawn) [VALNOCTAMIDE]
Result string: > 30 µM

Query string: Same question for `O=C1CN=C(c2ccccc2)c2cc([N+](=O)[O-])ccc2N1` please.
Result string: > 10 µM

Query string: Same question for `CN1C(C(=O)Nc2ccccn2)=C(O)c2ccccc2S1(=O)=O` please.
Result string: > 10 µM

Query string: Same question for `CCOC(=O)C1=C[C@]2(CC)CCCN3CCc4c(n1c1ccccc41)[C@@H]32` please.
Result string: > 30 µM

Query string: Same question for `C=C[C@@]1(C)CC(=O)[C@]2(O)[C@@]3(C)[C@@H](O)CCC(C)(C)[C@@H]3[C@H](O)[C@H](OC(C)=O)[C@@]2(C)O1` please.
Result string: > 30 µM

* * *

Listed here: items and their measured AC50.
- Measured Target: 5-hydroxytryptamine receptor 2B (Homo sapiens, UniProt P41595); further: assay procedure not described here
- Sequence (P41595 whole entry): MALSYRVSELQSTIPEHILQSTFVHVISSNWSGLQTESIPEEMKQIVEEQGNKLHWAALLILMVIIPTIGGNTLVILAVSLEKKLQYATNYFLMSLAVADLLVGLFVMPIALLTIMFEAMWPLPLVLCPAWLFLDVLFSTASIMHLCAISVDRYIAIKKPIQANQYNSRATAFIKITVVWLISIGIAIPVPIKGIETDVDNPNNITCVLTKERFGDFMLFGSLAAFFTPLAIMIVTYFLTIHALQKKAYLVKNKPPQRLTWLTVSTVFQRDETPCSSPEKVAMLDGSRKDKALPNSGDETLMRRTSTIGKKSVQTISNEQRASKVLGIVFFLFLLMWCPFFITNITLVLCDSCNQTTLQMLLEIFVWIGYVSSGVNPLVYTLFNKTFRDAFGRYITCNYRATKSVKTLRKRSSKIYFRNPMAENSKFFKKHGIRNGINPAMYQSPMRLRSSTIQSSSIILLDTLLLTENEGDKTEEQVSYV
- Assay type: functional, cell-based

Compound | Test Value
CC(C)[C@H](N)C(=O)OCC(CO)OCn1cnc2c(=O)nc(N)[nH]c21 (stereo partly drawn) | > 30 µM
CCN(CC)CCNC(=O)c1cc(S(C)(=O)=O)ccc1OC [TIAPRIDE] | > 30 µM
COc1cc2c(cc1OC)C(CCc1ccc(Cl)cc1)N(C)CC2 (stereo not drawn) | > 10 µM
CO[C@H]1/C=C/O[C@@]2(C)Oc3c(C)c(O)c4c(O)c(c(/C=N/N5CCN(C)CC5)c(O)c4c3C2=O)NC(=O)/C(C)=C\C=C\[C@H](C)[C@H](O)[C@@H](C)[C@@H](O)[C@@H](C)[C@H](OC(C)=O)[C@@H]1C | > 30 µM
CC(C(=O)O)c1ccc(CC2CCCC2=O)cc1 (stereo not drawn) | > 30 µM

Query string: Record request: AC50 value, item CC(C)(C)C(=O)OCC(=O)[C@H]1CC[C@H]2[C@@H]3CCC4=CC(=O)CC[C@]4(C)[C@H]3CC[C@]12C [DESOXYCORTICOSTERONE PIVALATE]
Result string: > 10 µM

Query string: Same question for `Cc1noc(NS(=O)(=O)c2ccc(N)cc2)c1C` please.
Result string: > 10 µM

Query string: Same question for `[H]/N=C(/N)N/C(=N/[H])NCCc1ccccc1` please.
Result string: > 30 µM

* * *

What follows is a collection of AC50 values obtained with Androgen receptor (Rattus norvegicus).
Sequence (P15207 whole entry S389L): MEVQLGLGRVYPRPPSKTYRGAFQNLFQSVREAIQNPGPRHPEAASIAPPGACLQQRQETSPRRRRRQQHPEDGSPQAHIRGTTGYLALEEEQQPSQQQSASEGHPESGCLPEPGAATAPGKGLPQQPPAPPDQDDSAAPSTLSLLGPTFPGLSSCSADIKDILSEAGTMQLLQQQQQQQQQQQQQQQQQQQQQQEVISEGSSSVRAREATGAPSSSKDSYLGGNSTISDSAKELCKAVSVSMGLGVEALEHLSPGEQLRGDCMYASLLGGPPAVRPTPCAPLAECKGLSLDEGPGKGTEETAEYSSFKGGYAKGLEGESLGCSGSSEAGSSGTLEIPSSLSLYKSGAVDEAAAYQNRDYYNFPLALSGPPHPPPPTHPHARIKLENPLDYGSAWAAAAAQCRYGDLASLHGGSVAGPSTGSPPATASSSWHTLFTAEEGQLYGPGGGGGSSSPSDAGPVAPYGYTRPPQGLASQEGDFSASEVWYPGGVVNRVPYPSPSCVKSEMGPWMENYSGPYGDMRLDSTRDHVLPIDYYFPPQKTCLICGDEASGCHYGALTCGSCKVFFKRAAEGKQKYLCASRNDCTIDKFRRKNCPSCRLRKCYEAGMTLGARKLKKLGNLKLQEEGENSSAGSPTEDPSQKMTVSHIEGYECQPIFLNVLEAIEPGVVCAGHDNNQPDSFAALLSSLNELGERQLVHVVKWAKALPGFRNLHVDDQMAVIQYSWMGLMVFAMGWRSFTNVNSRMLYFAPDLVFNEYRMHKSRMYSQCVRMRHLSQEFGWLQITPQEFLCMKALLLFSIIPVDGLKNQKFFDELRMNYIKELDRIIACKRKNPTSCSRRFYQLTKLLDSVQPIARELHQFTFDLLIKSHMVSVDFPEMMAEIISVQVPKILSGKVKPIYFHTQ

Example compounds with recorded AC50:
Compound | AC50
CNCc1ccc(-c2[nH]c3cc(F)cc4c3c2CCNC4=O)cc1 | > 30 µM
CCC[C@H](NC(=O)[C@@H]1[C@H]2CCC[C@H]2CN1C(=O)[C@@H](NC(=O)[C@@H](NC(=O)c1cnccn1)C1CCCCC1)C(C)(C)C)C(=O)C(=O)NC1CC1 | > 30 µM
OC1(c2ccc(Cl)cc2)c2ccccc2C2=NCCN21 (stereo not given) | > 30 µM
CCC(=O)O[C@H]1CC[C@H]2[C@@H]3CCC4=CC(=O)CC[C@]4(C)[C@H]3CC[C@]12C [TESTOSTERONE PROPIONATE] | 1.7 µM

Query string: Record request: AC50 value, item COc1cc2c(cc1OC)C(CCc1ccc(Cl)cc1)N(C)CC2 (stereo not given)
Result string: > 30 µM

* * *

- Measured Target: Equilibrative nucleoside transporter 1 (Homo sapiens, UniProt Q99808); further: assay procedure not described here
- Sequence (Q99808 whole entry): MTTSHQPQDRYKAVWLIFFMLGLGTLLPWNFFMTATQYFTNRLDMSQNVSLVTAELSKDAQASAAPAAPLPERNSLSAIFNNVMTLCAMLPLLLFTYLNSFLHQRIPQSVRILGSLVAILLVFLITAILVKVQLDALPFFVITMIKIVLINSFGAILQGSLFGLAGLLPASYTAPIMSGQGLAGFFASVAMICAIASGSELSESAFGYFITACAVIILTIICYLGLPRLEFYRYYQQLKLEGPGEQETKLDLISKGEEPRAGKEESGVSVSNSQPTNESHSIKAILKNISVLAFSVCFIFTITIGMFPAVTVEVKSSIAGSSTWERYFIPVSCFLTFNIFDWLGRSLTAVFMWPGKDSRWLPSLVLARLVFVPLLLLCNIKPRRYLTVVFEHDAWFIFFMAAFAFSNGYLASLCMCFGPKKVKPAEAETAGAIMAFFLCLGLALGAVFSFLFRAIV
Listed here: items and their measured AC50.

Compound | Measured Property | Test Value
C=C1/C(=C\C=C2/CCC[C@]3(C)[C@@H]([C@H](C)/C=C/[C@@H](O)C4CC4)CC[C@@H]23)C[C@@H](O)C[C@@H]1O [CALCIPOTRIENE] | AC50 | > 30 µM

Query string: Request: AC50, test system Equilibrative nucleoside transporter 1 (Homo sapiens, UniProt Q99808), entry COc1cc2nccc(Oc3ccc(NC(=O)C4(C(=O)Nc5ccc(F)cc5)CC4)cc3)c2cc1OC [CABOZANTINIB]; further: assay procedure not described here
Result string: > 30 µM

Query string: Same question for CC(C)Cc1ccc(C(C)C(=O)O)cc1 (stereo not drawn) [IBUPROFEN] please.
Result string: > 30 µM

* * *

What follows is a collection of AC50 values obtained with Sodium-dependent dopamine transporter (Homo sapiens).
Sequence (Q01959 whole entry): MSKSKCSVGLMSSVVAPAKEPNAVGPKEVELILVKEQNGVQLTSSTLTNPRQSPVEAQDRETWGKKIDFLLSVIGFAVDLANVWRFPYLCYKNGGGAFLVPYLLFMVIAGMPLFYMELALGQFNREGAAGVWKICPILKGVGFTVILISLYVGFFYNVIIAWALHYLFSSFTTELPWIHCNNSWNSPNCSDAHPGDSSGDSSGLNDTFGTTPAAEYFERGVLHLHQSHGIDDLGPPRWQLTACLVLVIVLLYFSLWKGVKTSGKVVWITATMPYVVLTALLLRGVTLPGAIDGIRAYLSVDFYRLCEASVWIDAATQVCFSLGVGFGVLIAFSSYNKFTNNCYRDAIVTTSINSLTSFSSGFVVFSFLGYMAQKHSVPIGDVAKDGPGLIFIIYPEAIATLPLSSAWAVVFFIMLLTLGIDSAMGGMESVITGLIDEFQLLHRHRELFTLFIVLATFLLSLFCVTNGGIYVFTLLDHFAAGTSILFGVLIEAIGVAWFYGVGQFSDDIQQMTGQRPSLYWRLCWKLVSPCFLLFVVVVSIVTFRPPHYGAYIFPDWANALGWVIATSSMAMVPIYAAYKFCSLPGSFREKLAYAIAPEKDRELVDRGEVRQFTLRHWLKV

Example compounds with recorded AC50:
Compound | AC50
O=C1CCc2cc(OCCCCc3nnnn3C3CCCCC3)ccc2N1 | > 30 µM
CC(C)N(CCC(C(N)=O)(c1ccccc1)c1ccccn1)C(C)C (stereo not drawn) [DISOPYRAMIDE] | > 30 µM
COc1ccccc1Oc1c(NS(=O)(=O)c2ccc(C(C)(C)C)cc2)nc(-c2ncccn2)nc1OCCO | > 30 µM
Cc1noc(NS(=O)(=O)c2ccc(N)cc2)c1C | > 10 µM
CCCC(CCC)C(N)=O [VALPROMIDE] | > 30 µM
CC(C)COCC(CN(Cc1ccccc1)c1ccccc1)N1CCCC1 (stereo not drawn) | 16.2 µM
CC(N)C12CC3CC(CC(C3)C1)C2 (stereo not drawn) | > 10 µM
CCN1CCN(Cc2ccc(Nc3ncc(F)c(-c4cc(F)c5nc(C)n(C(C)C)c5c4)n3)nc2)CC1 | > 30 µM

Query string: Request: AC50, test system Sodium-dependent dopamine transporter (Homo sapiens), entry CC(=O)OCC(=O)[C@@]1(O)[C@H](C)C[C@H]2[C@@H]3CCC4=CC(=O)C=C[C@]4(C)[C@@]3(F)[C@@H](O)C[C@@]21C [DEXAMETHASONE ACETATE]; further: assay procedure not described here
Result string: > 30 µM

Query string: Same question for COc1cc2ncnc(Nc3ccc(F)c(Cl)c3)c2cc1NC(=O)/C=C/CN1CCCCC1 [DACOMITINIB ANHYDROUS] please.
Result string: 15 µM

Query string: Same question for Clc1ccc(C(Cn2ccnc2)OCc2ccsc2Cl)c(Cl)c1 (stereo not drawn) please.
Result string: 10.6 µM

Query string: Same question for `C[C@@H](Oc1cc(-c2cnn(C3CCNCC3)c2)cnc1N)c1c(Cl)ccc(F)c1Cl` please.
Result string: 7.8 µM

Query string: Same question for `NC(=O)CN1CCCC1=O` please.
Result string: > 30 µM

Query string: Same question for `Cn1c(=O)cc(N2CCC[C@@H](N)C2)n(Cc2ccccc2C#N)c1=O` please.
Result string: > 10 µM

* * *

Listed here: items and their measured AC50.
- Measured Target: Muscarinic acetylcholine receptor M2 (Homo sapiens); further: assay procedure not described here
- Sequence (P08172 whole entry): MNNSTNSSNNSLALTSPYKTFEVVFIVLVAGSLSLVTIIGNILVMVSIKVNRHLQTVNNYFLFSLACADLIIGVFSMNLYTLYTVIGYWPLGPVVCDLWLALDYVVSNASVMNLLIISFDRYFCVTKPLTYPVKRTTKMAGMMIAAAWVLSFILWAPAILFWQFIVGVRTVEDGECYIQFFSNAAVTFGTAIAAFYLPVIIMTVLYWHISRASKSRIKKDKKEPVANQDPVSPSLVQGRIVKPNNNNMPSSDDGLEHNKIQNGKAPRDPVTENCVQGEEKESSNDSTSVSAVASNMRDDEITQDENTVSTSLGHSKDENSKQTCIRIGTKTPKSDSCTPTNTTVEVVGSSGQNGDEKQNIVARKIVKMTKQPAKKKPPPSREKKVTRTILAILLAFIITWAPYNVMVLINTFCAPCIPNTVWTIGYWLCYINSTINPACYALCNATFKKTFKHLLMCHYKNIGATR
- Type: functional, cell-based

Compound | Measured Target | AC50
Cc1cccc(N2CC(CO)OC2=O)c1 (configuration not stated) [TOLOXATONE] | Muscarinic acetylcholine receptor M2 (Homo sapiens) | > 30 µM
C[C@]12C=CC(=O)N[C@@H]1CC[C@@H]1[C@@H]2CC[C@]2(C)[C@@H](C(=O)Nc3cc(C(F)(F)F)ccc3C(F)(F)F)CC[C@@H]12 [DUTASTERIDE] | Muscarinic acetylcholine receptor M2 (Homo sapiens) | > 10 µM
CC(C(=O)O)c1ccc(-c2ccccc2)c(F)c1 (configuration not stated) [FLURBIPROFEN] | Muscarinic acetylcholine receptor M2 (Homo sapiens) | > 10 µM
COc1cc2nccc(Oc3ccc(NC(=O)C4(C(=O)Nc5ccc(F)cc5)CC4)cc3)c2cc1OC [CABOZANTINIB] | Muscarinic acetylcholine receptor M2 (Homo sapiens) | > 30 µM
CCOC(=O)O[C@]1(C(=O)OCCl)CC[C@H]2[C@@H]3CCC4=CC(=O)C=C[C@]4(C)[C@H]3[C@@H](O)C[C@@]21C [LOTEPREDNOL ETABONATE] | Muscarinic acetylcholine receptor M2 (Homo sapiens) | > 30 µM
CC(=O)[C@@]1(O)CC[C@H]2[C@@H]3C=C(Cl)C4=CC(=O)[C@@H]5C[C@@H]5[C@]4(C)[C@H]3CC[C@@]21C [CYPROTERONE] | Muscarinic acetylcholine receptor M2 (Homo sapiens) | > 10 µM

Query string: Record request: AC50 value, item CN1C[C@H](C(=O)N[C@]2(C)O[C@@]3(O)[C@@H]4CCCN4C(=O)[C@H](Cc4ccccc4)N3C2=O)C=C2c3cccc4[nH]cc(c34)C[C@H]21 [ERGOTAMINE]
Result string: > 30 µM
